# Tested on: DNA
# experimental conditions: Bos taurus
# Description: Binding affinity to Bos taurus (calf) thymus DNA assessed as change in melting temperature at drug to DNA base pair ratio 0.25 M
Flag rule - ΔTm less than 10 °C flags fulfilled; the remaining entries get not fulfilled.

For orientation, consider the following solved cases.
CN(C)CCNc1ccc2nnn3c4ccccc4c(=O)c1c23 | fulfilled
CCN(CC)CCNc1ccc2nc(C)n3c4ccc(O)cc4c(=O)c1c23 | not fulfilled
CN(C)CCCCCNc1ccc2ncn3c4ccc(O)cc4c(=O)c1c23 | not fulfilled
CN(C)CCCNc1ccc2ncn3c4ccc(O)cc4c(=O)c1c23 | fulfilled
CCN(CC)CCNc1ccc2ncn3c4ccc(OC)cc4c(=O)c1c23 | not fulfilled
CN(C)CCNc1ccc2ncn3c4ccccc4c(=O)c1c23 | fulfilled

Prompt: Hi there! Is ΔTm for CCN(CC)CCNc1ccc2ncn3c4cc(O)ccc4c(=O)c1c23 below 10 °C, do you know?
Response: fulfilled

Prompt: Hi there! Is ΔTm for CN(C)CCNc1ccc2ncn3c4ccc(O)cc4c(=O)c1c23 below 10 °C, do you know?
Response: not fulfilled

Prompt: Hi there! Is ΔTm for CCN(CC)CCNc1ccc2ncn3c4ccccc4c(=O)c1c23 below 10 °C, do you know?
Response: fulfilled

Prompt: Hi there! Is ΔTm for CN(C)CCNc1ccc2nnn3c4ccc(O)cc4c(=O)c1c23 below 10 °C, do you know?
Response: not fulfilled

Prompt: Hi there! Is ΔTm for CCN(CC)CCNc1ccc2ncn3c4ccc(C(C)(C)C)cc4c(=O)c1c23 below 10 °C, do you know?
Response: fulfilled

Prompt: Hi there! Is ΔTm for CCN(CC)CCCCCNc1ccc2ncn3c4ccc(C)cc4c(=O)c1c23 below 10 °C, do you know?
Response: not fulfilled

Prompt: Hi there! Is ΔTm for CCNCCNc1ccc2nnn3c4ccc(O)cc4c(=O)c1c23 below 10 °C, do you know?
Response: fulfilled

Prompt: Hi there! Is ΔTm for CN(C)CCNc1ccc2nnn3c4ccc(C(C)(C)C)cc4c(=O)c1c23 below 10 °C, do you know?
Response: fulfilled

###

# Tested on: DNA
# experimental conditions: Bos taurus
measured parameter: ΔTm (°C)
Write down the numeric answer in °C and omit the unit.

Would you please look over these solved cases?
CN(C)CCCCCNc1ccc2ncn3c4ccccc4c(=O)c1c23 | 9.9
CN(C)CCCNc1ccc2ncn3c4ccccc4c(=O)c1c23 | 11.5

Next, consider the following compound.
Prompt: // ΔTm lookup, key: Cc1ccc2c(c1)c(=O)c1c(NCCCN(C)C)ccc3nnn2c31
Response: 11.5

###

# System: DNA
# experimental conditions: Bos taurus
Catalogue of molecules with associated ΔTm
Write down the value, and be sure its unit follows.

Would you please look over these solved cases?
CN(C)CCN(C)c1ccc2nnn3c4ccc(O)cc4c(=O)c1c23 | 8.1 °C
CCN(CC)CCNc1ccc2ncn3c4ccc(O)cc4c(=O)c1c23 [C-1311] | 13.7 °C

Next, consider the following molecule.
Prompt: // ΔTm lookup, key: CN(C)CCCNc1ccc2nnn3c4ccc(O)cc4c(=O)c1c23
Response: 15.1 °C
